# target_or_system: His-AKT (Full Length) (Homo sapiens, UniProt P31749)
# Construct: His-AKT (Full Length); His
# Sequence (P31749 whole entry): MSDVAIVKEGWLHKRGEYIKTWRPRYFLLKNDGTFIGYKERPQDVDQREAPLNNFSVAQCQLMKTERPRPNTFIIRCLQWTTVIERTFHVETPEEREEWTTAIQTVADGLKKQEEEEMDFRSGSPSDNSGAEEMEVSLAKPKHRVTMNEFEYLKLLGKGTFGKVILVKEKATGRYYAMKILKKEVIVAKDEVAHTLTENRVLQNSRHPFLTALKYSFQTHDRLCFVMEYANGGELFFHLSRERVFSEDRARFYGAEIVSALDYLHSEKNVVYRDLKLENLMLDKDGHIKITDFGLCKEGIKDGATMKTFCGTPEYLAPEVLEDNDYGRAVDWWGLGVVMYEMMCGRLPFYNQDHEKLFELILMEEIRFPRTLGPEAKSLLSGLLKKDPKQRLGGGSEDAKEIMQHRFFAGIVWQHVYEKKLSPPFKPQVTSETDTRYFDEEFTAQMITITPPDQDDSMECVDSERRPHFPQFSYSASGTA
# assay_notes: AKT enzyme assay
# setup_conditions: 160 uM ATP, 90 min at 25 C, off-chip mobility shift (Caliper)
experimental_readout: IC50

Example entries and their recorded answers appear below.
# smiles_notation, IC50
measured = [
    ("CN(C)CCn1cc(-c2ccnc(C(F)(F)F)c2)nc1C1CCN(c2ncnc(N)c2Br)CC1", "< 3 nM"),
    ("CC(C)c1cc(-c2cn(CCN3CCC3)c(C3CCN(c4ncnc(N)c4C=O)CC3)n2)ccn1", "3 to 15 nM"),
    ("Cc1cc(-c2cn(CCN3CCC3)c(C3CCN(c4ncnc(N)c4C(C)C)CC3)n2)ccc1F", "3 to 15 nM"),
    ("CC(C)Oc1c(N)ncnc1N1CCC(c2nc(-c3ccnc(C(F)(F)F)c3)cn2CCN(C)C)CC1", "3 to 15 nM"),
    ("CCOc1c(N)ncnc1N1CCC(c2nc(-c3ccc(F)c(Cl)c3)cn2CCN(C)C)CC1", "3 to 15 nM"),
    ("CCOc1c(N)ncnc1N1CCC(c2nc(-c3ccnc(C(F)(F)F)c3)cn2CCN(C)C)CC1", "3 to 15 nM"),
    ("CCc1c(N)ncnc1N1CCC(c2nc(-c3ccc(F)c(C)c3)cn2CCN2CCC2)CC1", "3 to 15 nM"),
    ("CC(C)c1cc(-c2cn(CCN3CCC3)c(C3CCN(c4ncnc(N)c4-c4ccccc4)CC3)n2)ccn1", "> 15 nM"),
]

Query: Please give the measured IC50 for this molecule: Cc1cc(-c2cn(CCN3CCC3)c(C3CCN(c4ncnc(N)c4C4CC4)CC3)n2)ccc1F
Reply: < 3 nM

Query: Please give the measured IC50 for this molecule: CN(C)CCn1cc(-c2ccnc(C(F)(F)F)c2)nc1C1CCN(c2ncnc(N)c2C#N)CC1
Reply: 3 to 15 nM

Query: Please give the measured IC50 for this molecule: CN(C)CCn1cc(-c2ccnc(C(F)(F)F)c2)nc1C1CCN(c2ncnc(N)c2Cl)CC1
Reply: 3 to 15 nM

The reported measurements were obtained from patent US9434714B2.
